target: Recombinant human His6-USP1/His6-UAF1 complex protein (Homo sapiens, UniProt O94782); construct: His6; assay: In vitro inhibitory activity against USP1 (Ubiquitin Rhodamine 110 fluorescence detection, 384-well plate); details: Ub-Rho substrate, 1 hour pre-incubation, read after 30 minutes
Sequence (O94782 whole entry): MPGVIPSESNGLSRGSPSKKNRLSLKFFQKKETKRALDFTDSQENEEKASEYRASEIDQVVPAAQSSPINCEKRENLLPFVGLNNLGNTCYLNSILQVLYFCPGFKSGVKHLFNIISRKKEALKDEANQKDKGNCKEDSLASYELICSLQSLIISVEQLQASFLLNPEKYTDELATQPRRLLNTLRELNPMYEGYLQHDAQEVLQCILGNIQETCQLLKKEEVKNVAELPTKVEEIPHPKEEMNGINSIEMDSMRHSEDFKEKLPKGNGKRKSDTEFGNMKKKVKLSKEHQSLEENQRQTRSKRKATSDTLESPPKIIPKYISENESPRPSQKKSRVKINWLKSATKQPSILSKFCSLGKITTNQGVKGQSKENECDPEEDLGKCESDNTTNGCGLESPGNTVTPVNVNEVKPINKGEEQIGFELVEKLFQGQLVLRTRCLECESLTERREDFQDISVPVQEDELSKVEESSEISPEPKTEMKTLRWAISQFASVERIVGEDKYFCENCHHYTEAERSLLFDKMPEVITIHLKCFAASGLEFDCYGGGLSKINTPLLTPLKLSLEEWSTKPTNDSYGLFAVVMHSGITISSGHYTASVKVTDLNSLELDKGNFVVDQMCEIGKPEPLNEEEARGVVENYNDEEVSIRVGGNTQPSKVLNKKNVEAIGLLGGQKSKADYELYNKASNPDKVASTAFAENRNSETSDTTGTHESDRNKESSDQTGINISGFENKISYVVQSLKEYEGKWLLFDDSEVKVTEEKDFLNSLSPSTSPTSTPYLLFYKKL
Sequence (Q8TAF3 whole entry partner): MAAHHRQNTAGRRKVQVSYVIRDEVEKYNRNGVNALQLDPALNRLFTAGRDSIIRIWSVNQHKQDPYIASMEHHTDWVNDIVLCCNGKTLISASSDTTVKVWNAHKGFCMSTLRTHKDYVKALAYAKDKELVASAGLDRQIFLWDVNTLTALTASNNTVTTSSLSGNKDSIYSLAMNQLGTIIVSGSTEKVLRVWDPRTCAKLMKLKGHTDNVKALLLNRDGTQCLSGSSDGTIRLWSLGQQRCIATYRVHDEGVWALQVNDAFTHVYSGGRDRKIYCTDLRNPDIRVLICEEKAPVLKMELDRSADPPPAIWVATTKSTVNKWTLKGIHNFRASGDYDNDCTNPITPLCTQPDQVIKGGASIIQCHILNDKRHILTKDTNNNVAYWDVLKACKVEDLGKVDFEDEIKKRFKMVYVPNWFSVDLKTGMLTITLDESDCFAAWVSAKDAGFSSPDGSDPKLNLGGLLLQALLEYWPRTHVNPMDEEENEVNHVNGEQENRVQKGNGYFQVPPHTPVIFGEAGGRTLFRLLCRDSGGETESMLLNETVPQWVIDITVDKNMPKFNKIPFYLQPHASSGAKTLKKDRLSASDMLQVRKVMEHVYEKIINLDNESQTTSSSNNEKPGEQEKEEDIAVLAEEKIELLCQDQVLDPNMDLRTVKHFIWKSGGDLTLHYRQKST
Metric: log10(IC50) (log10 of the value in nM)
All values: log10 IC50 [nM].

COc1ncnc(C2CC2)c1-c1ncc(C#N)c(NCc2ccc(-c3nc(C(F)(F)F)cn3C)cc2)n1 ... 0.87
COc1cnc(-c2c(OC)ncnc2C2CC2)nc1NCC1CCN(c2nc(C(F)(F)F)cn2C)CC1 ... 0.92
COc1cc(CNc2nc(-c3ccccc3C(C)C)nc3ccoc23)ccc1-n1nc(C(F)(F)F)cc1C ... 0.95
COc1cnc(-c2c(OC)ncnc2C2CC2)nc1NCC12CCC(c3nc(C(F)(F)F)cn3C3CCC3)(CC1)OC2 ... 1.53
[2H]C([2H])([2H])N(CC12CCC(c3nc(C(F)(F)F)cn3C)(CC1)CC2)c1nc(-c2c(OC)ncnc2C2CC2)ncc1OC ... 0.69
COc1cnc(-c2c(Cl)cnn2C2CC2)nc1NCc1ccc(-c2nc(C(F)(F)F)cn2C)cc1 ... 0.58
COc1cnc(-c2cncnc2C2CC2)nc1NCc1ccc(-c2nc(C(F)(F)F)cn2C)cc1 ... 1.71
COc1cnc(-c2c(OC)ncnc2C2CC2)nc1N(Cc1ccc(-c2nc(C(F)(F)F)cn2C)cc1)C1CCOC1 (stereo not shown) ... 1.86

I have 6 molecules here; please give me log10(IC50) for each one.
1. COc1ncnc(C2CC2)c1-c1ncc2c(n1)N(Cc1ccc(-c3ccccn3)cc1)CCO2
2. COc1cc(-c2nc(C(F)(F)F)cn2C)ccc1CNc1nc(-c2c(OC)ncnc2C2CC2)nc2ccoc12
3. COc1ncnc(C2CC2)c1-c1ncc(CO)c(NCc2ccc(-c3nc(C(F)(F)F)cn3C(C)C)cc2)n1
4. COc1ncnc(C2CC2)c1-c1ncc(F)c(N(C)Cc2ccc(-c3nc(C(F)(F)F)cn3C(C)C)cc2)n1
5. COc1cnc(-c2ccccc2C(C)C)nc1NCC1CCN(c2nc(C(F)(F)F)cn2C)CC1
6. COc1cc(-c2nc(C(F)(F)F)cn2C)ccc1CNc1nc(-c2c(OC)ncnc2C2CC2)ncc1OC(F)F

1: 1.54; 2: 0.88; 3: 1.38; 4: 0.62; 5: 0.32; 6: 1.23

I have 5 molecules here; please give me log10(IC50) for each one.
1. COc1cnc(-c2ccccc2C(C)C)nc1N(C)CC1CCN(c2ccccn2)CC1
2. COc1cnc(-c2ccccc2C(C)C)nc1NCc1ccc(-c2nccn3ccnc23)cc1
3. COc1cnc(-c2cccnc2C2CC2)nc1NCC1CCN(c2nc(C(F)(F)F)cn2C)CC1
4. CC(C)c1ccccc1-c1ncc2c(n1)N(CC1CCC(c3nc(C(F)(F)F)cn3C)CC1)CCO2 (stereo not shown)
5. CC(C)c1ccccc1-c1ncc(Cl)c(NCc2ccc(-c3nc(C(F)(F)F)cn3C)cc2)n1

1. 1.15
2. 1.34
3. 0.88
4. 0.28
5. 0.04

###

molecular target: Recombinant human His6-USP1/His6-UAF1 complex protein (Homo sapiens, UniProt O94782); construct: His6; experiment: In vitro inhibitory activity against USP1 (Ubiquitin Rhodamine 110 fluorescence detection, 384-well plate); details: Ub-Rho substrate, 1 hour pre-incubation, read after 30 minutes
Metric: IC50 (nM)
Numbers only, in nM.

Solved cases (3 shown):
COc1cnc(-c2c(OC)ncnc2C2CC2)nc1N(C)CC12CCC(c3nc(C(F)(F)F)cn3C)(CC1)OC2 [Example 212] ... 19
COc1cnc(-c2c(OC)ncnc2C2CC2)nc1N(C)Cc1ccc(-c2nc(C(F)(F)F)cn2C(C)C)cc1 [Example 93] ... 1.5
COc1cnc(-c2c(OC)ncnc2C2CC2)nc1NCC12C3C4C1C1C2C3C41c1nc(C(F)(F)F)cn1C1CC1 (stereo not shown) [Example 216] ... 1.4

We now examine a further compound.
Reported IC50, compound COc1cnc(-c2c(Cl)cnn2C(C)C)nc1N(C)CC12CCC(c3nc(C(F)(F)F)cn3C(C)C)(CC1)OC2 [Example S13] : ____
13

###

target: Recombinant human His6-USP1/His6-UAF1 complex protein (Homo sapiens); construct: His6; experiment: In vitro inhibitory activity against USP1 (Ubiquitin Rhodamine 110 fluorescence detection, 384-well plate); settings: Ub-Rho substrate, 1 hour pre-incubation, read after 30 minutes
pIC50: −log10 of the molar value.
So basically: pIC50 at 8 or higher? That is true (1). Lower than 8? That is false (0).

COc1cnc(-c2ccccc2C(C)C)nc1NCc1ccc(-c2ccccn2)cc1 ... true (1)
COc1cnc(-c2c(Cl)cnn2C(C)C)nc1N(C)CC12CCC(c3nc(C(F)(F)F)cn3C3CCC3)(CC1)OC2 ... false (0)
COc1cc(-c2nc(C(F)(F)F)cn2C)ccc1CNc1nc(-c2ccccc2C2CC2)ncc1OC ... true (1)
COc1cnc(-c2c(OC)ncnc2C2CC2)nc1NCc1ccc(-c2nc(C(F)(F)F)cn2C)cc1 [Example 96] ... true (1)
COc1cnc(-c2ccccc2C2CC2)nc1NCc1ccc(-n2nc(C(F)(F)F)cc2C)cc1 ... true (1)

Decide: pIC50 of `CC(C)c1ccccc1-c1nc(NCc2ccc(-c3nc(C(F)(F)F)cn3C)cc2)c2occc2n1` >= 8?
true (1)

Decide: pIC50 of `Cc1ncn(C(C)C)c1-c1nc(NCc2ccc(-c3nc(C(F)(F)F)cn3C)cc2)c2occc2n1` >= 8?
false (0)

Decide: pIC50 of `COc1cnc(-c2c(OC)ncnc2C2CC2)nc1NCc1ccc(OCc2ccccn2)cc1` >= 8?
false (0)

Decide: pIC50 of `COc1ncnc(C2CC2)c1-c1ncc2c(n1)N(CC1CCN(c3nc(C(F)(F)F)cn3C)CC1)C(=O)CO2` >= 8?
false (0)

Decide: pIC50 of `Cc1cc(C(F)(F)F)nn1-c1ccc(CNc2nc(-c3ccccc3C(C)C)nc3ccoc23)cc1` >= 8?
true (1)

Decide: pIC50 of `COc1ncnc(C2CC2)c1-c1nc(NCc2ccc(OCc3ccccn3)cc2)c2occc2n1` >= 8?
false (0)

Decide: pIC50 of `COc1ncnc(C2CC2)c1-c1ncc2c(n1)N(CC1CCN(c3nc(C(F)(F)F)cn3C)CC1)CCO2` >= 8?
false (0)

Decide: pIC50 of COc1cnc(-c2ccccc2C(C)C)nc1NCC1CCC(c2ccccn2)CC1 (stereo not drawn) >= 8?
true (1)

Decide: pIC50 of `COc1cnc(-c2c(OC)ncnc2C2CC2)nc1N(C#N)Cc1ccc(-c2nc(C(F)(F)F)cn2C)cc1` >= 8?
true (1)

Decide: pIC50 of `C#Cc1cnc(-c2c(C)cnn2C(C)C)nc1NCc1ccc(-c2nc(C(F)(F)F)cn2C)cc1` >= 8?
true (1)

Decide: pIC50 of `COc1cnc(-c2c(Cl)cnn2C(C)C)nc1NCc1ccc(-c2nc(C(F)(F)F)cn2C)cc1` >= 8?
true (1)

###

target: Recombinant human His6-USP1/His6-UAF1 complex protein (Homo sapiens, UniProt O94782); construct: His6; assay: In vitro inhibitory activity against USP1 (Ubiquitin Rhodamine 110 fluorescence detection, 384-well plate); conditions: Ub-Rho substrate, 1 hour pre-incubation, read after 30 minutes
Metric: IC50 (nM)
Give bare numbers, in nM.

CC(C)c1ccccc1-c1ncc(OC(F)F)c(NCc2ccc(-c3nc(C(F)(F)F)cn3C)cc2)n1 ... 1.1
COc1cnc(-c2c(OC)ncnc2C2CC2)nc1N(C)CC12C3C4C1C1C2C3C41c1nc(C(F)(F)F)cn1C (stereo not drawn) [Example S51] ... 3.8
COc1ncnc(C2CC2)c1-c1nc(NCc2ccc3c(c2)CCN(C)C3=O)c2occc2n1 ... 648
CC(C)c1ccccc1-c1ncc(N2CCN(C)CC2)c(NCc2ccc(-c3nc(C(F)(F)F)cn3C)cc2)n1 ... 10
COc1cnc(-c2c(Cl)cnn2C(C)C)nc1N(C)CC1CCN(c2ccccn2)CC1 ... 6

We now examine a further compound.
Reported IC50, compound `COc1cnc(-c2c(C)cnn2C2CC2)nc1N(C)Cc1ccc(-c2nc(C(F)(F)F)cn2C)cc1` : ____
3.2

###

So I've got a bunch of compounds here, and I need their IC50 values.
molecular target: Recombinant human His6-USP1/His6-UAF1 complex protein (Homo sapiens, UniProt O94782); construct: His6; experiment: In vitro inhibitory activity against USP1 (Ubiquitin Rhodamine 110 fluorescence detection, 384-well plate); details: Ub-Rho substrate, 1 hour pre-incubation, read after 30 minutes
Numbers only, in nM.

Solved cases (3 shown):
COc1cnc(-c2c(Cl)cnn2C(C)C)nc1NCC12CCC(c3nc(C(F)(F)F)cn3C3CCC3)(CC1)OC2 ... 6.1
COc1cnc(-c2ccccc2C(C)C)nc1NCC1CCN(c2ccccn2)CC1 ... 7.6
CCOCCOc1ccc(CNc2nc(-c3c(OC)ncnc3C3CC3)nc3ccoc23)cc1 ... 13.8

I have 2 compounds here; please give me IC50 for each one.
1. CC(C)Oc1cnc(-c2ccccc2C(C)C)nc1NCC1CCN(c2nc(C(F)(F)F)cn2C)CC1
2. COc1cnc(-c2c(OC)ncnc2C(F)(F)F)nc1N(C)C[C@H]1CC[C@H](c2nc(C(F)(F)F)cn2C(C)C)CC1

1. 6.1
2. 12
